assay: Metabolic stability in Sprague-Dawley rat liver microsomes after 30 mins by LC/MS analysis; format: ADME, Microsome; details: read-out: Stability
measured.property: remaining at 0.5 h

| smiles.code | measured.property | recorded.result |
| --- | --- | --- |
| CS(=O)(=O)c1ccc(C[C@H](NC(=O)c2c(Cl)cc3c(c2Cl)CCN(C(=O)c2ccc4ccoc4c2)C3)C(=O)O)o1 | remaining at 0.5 h | > 65% |

Then this molecule:
-- ask Entry CC(C)n1cc(C[C@H](NC(=O)c2c(Cl)cc3c(c2Cl)CCN(C(=O)c2ccc4ccoc4c2)C3)C(=O)O)nn1 has what remaining at 0.5 h?
-- reply > 95%
